Test system: Acinetobacter baumannii strains
Experiment notes: Antibiotic susceptibility test (CLSI disk diffusion test method, read per CLSI 2016)
Type: cell-based
Setup conditions: host strain YMC14/02/R3106
Reported property: antibiotic susceptibility class

NCC[C@H](O)C(=O)N[C@@H]1C[C@H](N)[C@@H](O[C@H]2O[C@H](CN)[C@@H](O)[C@H](O)[C@H]2O)[C@H](O)[C@H]1O[C@H]1O[C@H](CO)[C@@H](O)[C@H](N)[C@H]1O [Amikacin, amikacin]; R
CN(C)c1cc(NC(=O)CNC(C)(C)C)c(O)c2c1C[C@H]1C[C@H]3[C@H](N(C)C)C(O)=C(C(N)=O)C(=O)[C@@]3(O)C(O)=C1C2=O [Tigecycline, tigecycline]; S
C[C@@H](O)[C@H]1C(=O)N2C(C(=O)O)=C(S[C@@H]3CN[C@H](C(=O)N(C)C)C3)[C@H](C)[C@H]12 [Meropenem, meropenem]; R

---

Test system: Acinetobacter baumannii strains
Experiment notes: Antibiotic susceptibility test (CLSI disk diffusion test method, read per CLSI 2016)
Assay type: cell-based
Setup conditions: host strain YMC17/01/B12075
Reported property: susceptibility category (S/I/R)

CC(C)(O/N=C(\C(=O)N[C@@H]1C(=O)N2C(C(=O)[O-])=C(C[n+]3ccccc3)CS[C@H]12)c1csc(N)n1)C(=O)O; R
CN(C)c1cc(NC(=O)CNC(C)(C)C)c(O)c2c1C[C@H]1C[C@H]3[C@H](N(C)C)C(O)=C(C(N)=O)C(=O)[C@@]3(O)C(O)=C1C2=O; S
CN(C)c1ccc(O)c2c1C[C@H]1C[C@H]3[C@H](N(C)C)C(O)=C(C(N)=O)C(=O)[C@@]3(O)C(O)=C1C2=O; S

---

System: Acinetobacter baumannii strains
Experiment notes: Antibiotic susceptibility test (CLSI disk diffusion test method, read per CLSI 2016)
Format: cell-based
Setup conditions: host strain YMC14/01/R904
Reported property: antibiotic susceptibility class

As a guide, the following entries are already answered.
CO/N=C(\C(=O)N[C@@H]1C(=O)N2C(C(=O)O)=C(COC(C)=O)CS[C@H]12)c1csc(N)n1; R
CN(C)c1cc(NC(=O)CNC(C)(C)C)c(O)c2c1C[C@H]1C[C@H]3[C@H](N(C)C)C(O)=C(C(N)=O)C(=O)[C@@]3(O)C(O)=C1C2=O; S
C[C@H]1COc2c(N3CCN(C)CC3)c(F)cc3c(=O)c(C(=O)O)cn1c23; R
CCN1CCN(C(=O)N[C@@H](C(=O)N[C@@H]2C(=O)N3[C@@H]2SC(C)(C)[C@@H]3C(=O)O)c2ccccc2)C(=O)C1=O; R
C[C@@H](O)[C@H]1C(=O)N2C(C(=O)O)=C(SCCN=CN)C[C@H]12; R

Shifting focus to the compound that follows.
Request: So what's the measured antibiotic susceptibility class for this one? `CN(C)c1ccc(O)c2c1C[C@H]1C[C@H]3[C@H](N(C)C)C(O)=C(C(N)=O)C(=O)[C@@]3(O)C(O)=C1C2=O`
Result: I

---

Tested on: Acinetobacter baumannii strains
Experiment notes: Antibiotic susceptibility test (CLSI disk diffusion test method, read per CLSI 2016)
Assay type: cell-based
Setup conditions: host strain YMC14/01/R1659
Reported property: antibiotic susceptibility class

As a guide, the following entries are already answered.
NCC[C@H](O)C(=O)N[C@@H]1C[C@H](N)[C@@H](O[C@H]2O[C@H](CN)[C@@H](O)[C@H](O)[C@H]2O)[C@H](O)[C@H]1O[C@H]1O[C@H](CO)[C@@H](O)[C@H](N)[C@H]1O; R
CN(C)c1ccc(O)c2c1C[C@H]1C[C@H]3[C@H](N(C)C)C(O)=C(C(N)=O)C(=O)[C@@]3(O)C(O)=C1C2=O; S
C[C@@H](O)[C@H]1C(=O)N2C(C(=O)O)=C(S[C@@H]3CN[C@H](C(=O)N(C)C)C3)[C@H](C)[C@H]12; R
CC(C)(O/N=C(\C(=O)N[C@@H]1C(=O)N2C(C(=O)[O-])=C(C[n+]3ccccc3)CS[C@H]12)c1csc(N)n1)C(=O)O; R

Request: What reported antibiotic susceptibility class corresponds to `CCN1CCN(C(=O)N[C@@H](C(=O)N[C@@H]2C(=O)N3[C@@H]2SC(C)(C)[C@@H]3C(=O)O)c2ccccc2)C(=O)C1=O` on Acinetobacter baumannii strains?
Result: R

---

Test system: Acinetobacter baumannii strains
Experiment notes: Antibiotic susceptibility test (CLSI disk diffusion test method, read per CLSI 2016)
Format: cell-based
Setup conditions: host strain YMC14/01/R941
Reported property: antibiotic susceptibility class

As a guide, the following entries are already answered.
NCC[C@H](O)C(=O)N[C@@H]1C[C@H](N)[C@@H](O[C@H]2O[C@H](CN)[C@@H](O)[C@H](O)[C@H]2O)[C@H](O)[C@H]1O[C@H]1O[C@H](CO)[C@@H](O)[C@H](N)[C@H]1O; R
CN(C)c1ccc(O)c2c1C[C@H]1C[C@H]3[C@H](N(C)C)C(O)=C(C(N)=O)C(=O)[C@@]3(O)C(O)=C1C2=O; S
C[C@@H](O)[C@H]1C(=O)N2C(C(=O)O)=C(SCCN=CN)C[C@H]12; R
CO/N=C(\C(=O)N[C@@H]1C(=O)N2C(C(=O)O)=C(COC(C)=O)CS[C@H]12)c1csc(N)n1; R
CC(C)(O/N=C(\C(=O)N[C@@H]1C(=O)N2C(C(=O)[O-])=C(C[n+]3ccccc3)CS[C@H]12)c1csc(N)n1)C(=O)O; R
CCN1CCN(C(=O)N[C@@H](C(=O)N[C@@H]2C(=O)N3[C@@H]2SC(C)(C)[C@@H]3C(=O)O)c2ccccc2)C(=O)C1=O; R
CN(C)c1cc(NC(=O)CNC(C)(C)C)c(O)c2c1C[C@H]1C[C@H]3[C@H](N(C)C)C(O)=C(C(N)=O)C(=O)[C@@]3(O)C(O)=C1C2=O; R
C[C@@H](O)[C@H]1C(=O)N2C(C(=O)O)=C(S[C@@H]3CN[C@H](C(=O)N(C)C)C3)[C@H](C)[C@H]12; R

Request: So what's the measured antibiotic susceptibility class for this one? `C[C@H]1COc2c(N3CCN(C)CC3)c(F)cc3c(=O)c(C(=O)O)cn1c23`
Result: R

---

System: Acinetobacter baumannii strains
Experiment notes: Antibiotic susceptibility test (CLSI disk diffusion test method, read per CLSI 2016)
Assay type: cell-based
Setup conditions: host strain YMC17/03/R4607
Reported property: susceptibility category (S/I/R)

CO/N=C(\C(=O)N[C@@H]1C(=O)N2C(C(=O)O)=C(COC(C)=O)CS[C@H]12)c1csc(N)n1 [Cefotaxime, cefotaxime]; R
CC(C)(O/N=C(\C(=O)N[C@@H]1C(=O)N2C(C(=O)[O-])=C(C[n+]3ccccc3)CS[C@H]12)c1csc(N)n1)C(=O)O [Ceftazidime, ceftazidime]; R
CCN1CCN(C(=O)N[C@@H](C(=O)N[C@@H]2C(=O)N3[C@@H]2SC(C)(C)[C@@H]3C(=O)O)c2ccccc2)C(=O)C1=O [Piperacillin, piperacillin]; R

---

Tested on: Acinetobacter baumannii strains
Experiment notes: Antibiotic susceptibility test (CLSI disk diffusion test method, read per CLSI 2016)
Format: cell-based
Setup conditions: host strain YMC17/01/B13454
Reported property: antibiotic susceptibility S/I/R

CO/N=C(\C(=O)N[C@@H]1C(=O)N2C(C(=O)O)=C(COC(C)=O)CS[C@H]12)c1csc(N)n1 [Cefotaxime, cefotaxime]; R
C[C@@H](O)[C@H]1C(=O)N2C(C(=O)O)=C(SCCN=CN)C[C@H]12 [Imipenem, imipenem]; R
C[C@H]1COc2c(N3CCN(C)CC3)c(F)cc3c(=O)c(C(=O)O)cn1c23 [Levofloxacin, levofloxacin]; R
CN(C)c1cc(NC(=O)CNC(C)(C)C)c(O)c2c1C[C@H]1C[C@H]3[C@H](N(C)C)C(O)=C(C(N)=O)C(=O)[C@@]3(O)C(O)=C1C2=O [Tigecycline, tigecycline]; S

---

System: Acinetobacter baumannii strains
Experiment notes: Antibiotic susceptibility test (CLSI disk diffusion test method, read per CLSI 2016)
Assay type: cell-based
Setup conditions: host strain YMC14/01/R905
Method: Strain identification was performed using a kit such as AT 32 GN system (bioMérieux, Marcy l'Etoile, France). […] In Table 2 below, S, I, and R are the results obtained by evaluating susceptibility to the antibacterial agents, in which ‘S’ means susceptible, ‘I’ means intermediate, and ‘R’ means resistant. Strain identification was performed using a kit such as ATB 32 GN system (bioMédrieux, Marcy l'Etoile, France). […]
Reported property: antibiotic susceptibility class

As a guide, the following entries are already answered.
NCC[C@H](O)C(=O)N[C@@H]1C[C@H](N)[C@@H](O[C@H]2O[C@H](CN)[C@@H](O)[C@H](O)[C@H]2O)[C@H](O)[C@H]1O[C@H]1O[C@H](CO)[C@@H](O)[C@H](N)[C@H]1O; R
C[C@@H](O)[C@H]1C(=O)N2C(C(=O)O)=C(S[C@@H]3CN[C@H](C(=O)N(C)C)C3)[C@H](C)[C@H]12; R
CC(C)(O/N=C(\C(=O)N[C@@H]1C(=O)N2C(C(=O)[O-])=C(C[n+]3ccccc3)CS[C@H]12)c1csc(N)n1)C(=O)O; R
CN(C)c1cc(NC(=O)CNC(C)(C)C)c(O)c2c1C[C@H]1C[C@H]3[C@H](N(C)C)C(O)=C(C(N)=O)C(=O)[C@@]3(O)C(O)=C1C2=O; S

Shifting focus to the compound that follows.
Request: So what's the measured antibiotic susceptibility class for this one? `CCN1CCN(C(=O)N[C@@H](C(=O)N[C@@H]2C(=O)N3[C@@H]2SC(C)(C)[C@@H]3C(=O)O)c2ccccc2)C(=O)C1=O`
Result: R
